Molecular target: T1, canine CD20 (canine, UniProt Q3C2E2 1-297)
T1 chain: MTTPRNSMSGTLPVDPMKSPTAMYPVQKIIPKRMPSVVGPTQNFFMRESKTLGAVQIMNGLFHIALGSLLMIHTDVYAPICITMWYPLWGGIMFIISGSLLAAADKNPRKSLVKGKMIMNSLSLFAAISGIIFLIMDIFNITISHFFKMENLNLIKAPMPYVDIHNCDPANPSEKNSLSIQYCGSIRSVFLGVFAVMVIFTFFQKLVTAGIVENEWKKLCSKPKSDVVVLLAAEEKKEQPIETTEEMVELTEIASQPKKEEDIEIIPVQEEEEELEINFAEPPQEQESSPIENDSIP
Test: cell-based or functional assay
attribute.measured: ADCC EC50 (pM)
Give bare numbers, in pM.

Challenge: Recorded ADCC EC50 of PMX075 (antibody, V domains shown) VH: EVQLVESGGDLVKPGGSLRLSCVASGITFSRYHMSWVRQAPGKGLQWVAFINTGRSSTNYADAVAGRFTISRDNAKNTLYLQMNGLTVEDTAVYYCSTLDYWGQGTLVTVSS VL: SYVLTQLPSKSVTLKQPAHITCGGDNIGSKSVHWYQQKLGQAPILIIYYDNNRPTGIPERFSGANSGNTATLTISGALAEDEADYYCHVWDSSVNVFGGGTHLTVL , please.
Response given: 140
